biological target: AgMyo5; assay: SPOT peptide array binding signal intensity (averaged, normalized) (arbitrary units (background-subtracted, floor 0; scale differs between SH3 domains)); higher = stronger binding of the SH3 domain to the peptide
Measured Attribute: SPOT peptide array binding signal intensity
Give bare numbers.

Here is how some binders turned out for SPOT peptide array binding signal intensity.
EVTPKVPERPSRRKT ... 1.25
AGKRRLPLVRFKASD ... 2
LRIKRKPVQTFFEFI ... 0.5
VLRFLGFPLPIFEKG ... 0.5
TKIRRRPQQPLTDFT ... 0.5

Provide SPOT peptide array binding signal intensity values for the following items, in order.
1. LKPPIGRPPKFPKSP
2. SRYRRPLTLLLLKPF
3. RRRIAYPFYPFKKLG

1220
0.5
1.75

Origin of measurements: the supplement of paper PMC4466140
